phosphorylation enrichment values, listed per item
Target: FGFR1 (UniProt P11362)
Sequence (P11362 whole entry, looked up): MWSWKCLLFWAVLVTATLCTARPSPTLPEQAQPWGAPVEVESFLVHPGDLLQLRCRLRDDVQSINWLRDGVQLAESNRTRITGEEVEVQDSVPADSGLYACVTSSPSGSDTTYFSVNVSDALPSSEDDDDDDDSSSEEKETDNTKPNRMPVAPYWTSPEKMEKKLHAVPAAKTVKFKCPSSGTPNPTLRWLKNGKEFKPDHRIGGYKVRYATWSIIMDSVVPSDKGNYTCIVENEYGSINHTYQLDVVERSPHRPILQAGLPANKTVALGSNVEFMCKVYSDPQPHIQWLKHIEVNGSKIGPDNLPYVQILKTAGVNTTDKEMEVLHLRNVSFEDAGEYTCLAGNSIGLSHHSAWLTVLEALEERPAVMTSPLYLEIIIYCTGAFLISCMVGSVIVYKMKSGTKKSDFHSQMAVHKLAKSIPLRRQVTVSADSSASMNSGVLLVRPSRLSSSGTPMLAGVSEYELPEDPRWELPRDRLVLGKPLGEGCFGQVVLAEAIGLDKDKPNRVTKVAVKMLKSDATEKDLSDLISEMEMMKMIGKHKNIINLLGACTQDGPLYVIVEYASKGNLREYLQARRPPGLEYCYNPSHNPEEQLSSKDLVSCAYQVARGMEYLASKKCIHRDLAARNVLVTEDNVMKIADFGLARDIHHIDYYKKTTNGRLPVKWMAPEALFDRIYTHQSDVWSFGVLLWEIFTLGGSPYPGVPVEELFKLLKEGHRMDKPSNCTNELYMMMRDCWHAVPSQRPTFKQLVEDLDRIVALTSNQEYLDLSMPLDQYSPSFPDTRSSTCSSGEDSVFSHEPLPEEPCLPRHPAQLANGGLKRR
Assay: phosphorylation enrichment, bacterial display (enrichment ratio); higher = better substrate or ligand; peptides without Tyr show the background;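 note: 11-residue human phosphosite peptides and single-mutation variants displayed on the E. coli surface, counted by deep sequencing, each peptide's frequency after selection divided by its frequency in the unselected input library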;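 note: frequency after pTyr selection over input frequency; kinase dosed for 20-30% of maximal phosphorylation in three min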
Please respond with just the number, no unit label.

LVMFIYAISGM [SCN1A_Y1684_F1687S] : 0.48
HAEERYGKELV [PSTPIP1_Y53_Q48H] : 1.09
ISRASYFRKGG [ALK_Y1282_Y1278S_YF] : 0.341
RTTKTYFPHFD [HBA1_Y43_P38R] : 0.914
CEQELYSQLVY [WAS_Y102_W97C] : 3.8

Query: For the sequence KRLYAYKMLMA [TMC2_Y209_Q205R] , give its measured phosphorylation enrichment value.
Result: 0.453

Query: For the sequence LKMLVYMDMSK [LRRC7_Y234_L235M] , give its measured phosphorylation enrichment value.
Result: 1.02

Query: For the sequence PLYGEYFTLQI [TP53_Y327_D324Y] , give its measured phosphorylation enrichment value.
Result: 17.6
